Known growth inhibition of a selection of compounds
Experiment: inhibition of 3D7 malaria parasite growth – strain 3D7 (AID 2306);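 note: 0% = DMSO wells and 100% = chloroquine plus artemisinin control wells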
Settings: P. falciparum 3D7 erythrocytic growth, LDH absorbance, 72 h; at 2 µM; stronger effect = higher value
Give a bare numeral; the unit % is implied.

# example entries with known answers
>>> test_value("c1ccc(-c2csc(Nc3nc4cc5c(cc4s3)OCO5)n2)nc1")
81
>>> test_value("Cc1nc2c(c(O)c1Cl)-c1ccc(Oc3cccc(C(F)(F)F)c3)cc1C2=O")
94
>>> test_value("O=C(Nc1ccc(Cl)cc1)c1ccc(CN2CCCN(Cc3cccc(F)c3)CC2)cc1")
91
>>> test_value("CC(=O)Nc1cccc(C(=O)Nc2cccc(-c3ccc(-c4nc5ccc(F)cc5[nH]4)s3)c2)c1")
94
>>> test_value("O=C(Nc1ccc(F)cc1F)NC1CCN(CCCCCNC(=O)[C@@H]2C[C@H]2c2ccc(Cl)c(Cl)c2)CC1")
100

Annotate the compound "O=C(Nc1ccc(-c2ccc(-c3nc4ccc(C(F)(F)F)cc4[nH]3)cc2)cc1)Nc1ccc(F)c(F)c1F" with its measured growth inhibition.
99

Please look at this compound and report its growth inhibition: "Cc1cccc2[nH]c(-c3ccc(-c4ccc(NC(=O)Nc5cccc(C#N)c5)cc4)s3)nc12"
101

Give the value of growth inhibition reported for the following: "Cc1cccc(NC(=O)N(Cc2cc3cc(C)cc(C)c3[nH]c2=O)C2CC2)c1"
97

Read off the recorded growth inhibition for CCC(C)c1ccc(NC(=O)c2ccc(S(=O)(=O)Nc3ccc(OC)c(N4CCN(CC5CC5)CC4)c3)cc2)cc1 (stereo not given)
94

Using known records, supply growth inhibition for CC(Oc1cc(-n2cnc3ccc(NC(=O)CCN4CCCCC4)cc32)sc1C(N)=O)c1ccccc1Cl (stereo not given)
99

* * *

Target: Calcium-dependent protein kinase 4 (Plasmodium falciparum (isolate 3D7)) (UniProt Q8IBS5)
Sequence (Q8IBS5 whole entry, looked up): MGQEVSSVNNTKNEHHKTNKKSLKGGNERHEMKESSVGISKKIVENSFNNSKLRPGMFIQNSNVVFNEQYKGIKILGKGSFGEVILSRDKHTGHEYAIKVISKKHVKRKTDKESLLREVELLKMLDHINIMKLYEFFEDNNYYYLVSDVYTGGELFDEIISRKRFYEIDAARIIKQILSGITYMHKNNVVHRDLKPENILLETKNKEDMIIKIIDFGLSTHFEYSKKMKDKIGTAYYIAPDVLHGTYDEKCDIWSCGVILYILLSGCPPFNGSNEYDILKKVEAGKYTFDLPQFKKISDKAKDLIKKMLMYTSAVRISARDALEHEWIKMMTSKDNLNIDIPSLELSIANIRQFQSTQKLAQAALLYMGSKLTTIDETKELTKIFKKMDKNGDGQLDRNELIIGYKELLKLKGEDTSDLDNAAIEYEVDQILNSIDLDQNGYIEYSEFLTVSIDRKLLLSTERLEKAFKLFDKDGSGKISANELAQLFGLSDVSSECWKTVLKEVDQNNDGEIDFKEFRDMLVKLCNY
Test: PfCDPK4 kinase inhibitors, biochemical, TCAMS library (AID 1159588)
Settings: recombinant PfCDPK4, Kinase-Glo ATP depletion luminescence
Potency and affinity values are given separately. Calls of active or inactive are those of the source. Cut-off not given; nearly all actives show IC50 up to about 0.91 µM.
OBSERVED PROPERTY: outcome

>>> test_value("Cc1ncsc1CCN1C(=O)CC2(C1=O)C(=O)N(Cc1ccccc1)c1ccc(Cl)cc12 (stereo not drawn)")
"inactive"
>>> test_value("Cc1cc(N)c2cc(NC(=O)/C=C/c3ccccc3Cl)ccc2n1")
"inactive"
>>> test_value("COc1ccc(-c2nc(NCc3ccccc3)c3cc(OC)c(OC)cc3n2)cc1")
"inactive"

* * *

Test: antimalarial activity against Dd2 strain (AID 2302);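 note: 0% = DMSO untreated growth and 100% = chloroquine plus artemisinin killed control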
Conditions: P. falciparum Dd2 in RBCs, LDH growth readout, 72 h; at 2 µM
Activity calls are given as the source filed them.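 How the source made its calls: active means growth inhibition above 50% at the single 2 µM test dose, taken to imply half-maximal potency below 2 µM; inactive means the rest.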
Please answer using one outcome listed in active, inactive

>>> category("CN1CCCC(CN2CCN(Cc3cccc(-c4csc(-c5nc6ccccc6[nH]5)c4)c3)CC2)C1 (stereo not given)")
"active"

I'd appreciate the recorded outcome for "c1cc(CN2CCc3ccccc3CC2)cc(-c2c[nH]c3nc(NC4CCCC4)ncc23)c1" from this test.
inactive

Test call for this compound, please: "CS(=O)(=O)c1ccc(CCNCc2ccc(-c3ccc(CN(C(=O)C4CCCC4)C4CCN(Cc5ccccc5)CC4)cc3)nc2)cc1"
inactive

Test call, this compound: "O=C(/C=C/c1ccc(Cl)c(Cl)c1)NCCCCCN1CCC(NC(=O)c2ccc([N+](=O)[O-])cc2)CC1"
inactive

// provenance: PubChem BioAssay
